- SYSTEM_TESTED: HDAC4 (Homo sapiens (Human))
- Sequence (P56524 whole entry): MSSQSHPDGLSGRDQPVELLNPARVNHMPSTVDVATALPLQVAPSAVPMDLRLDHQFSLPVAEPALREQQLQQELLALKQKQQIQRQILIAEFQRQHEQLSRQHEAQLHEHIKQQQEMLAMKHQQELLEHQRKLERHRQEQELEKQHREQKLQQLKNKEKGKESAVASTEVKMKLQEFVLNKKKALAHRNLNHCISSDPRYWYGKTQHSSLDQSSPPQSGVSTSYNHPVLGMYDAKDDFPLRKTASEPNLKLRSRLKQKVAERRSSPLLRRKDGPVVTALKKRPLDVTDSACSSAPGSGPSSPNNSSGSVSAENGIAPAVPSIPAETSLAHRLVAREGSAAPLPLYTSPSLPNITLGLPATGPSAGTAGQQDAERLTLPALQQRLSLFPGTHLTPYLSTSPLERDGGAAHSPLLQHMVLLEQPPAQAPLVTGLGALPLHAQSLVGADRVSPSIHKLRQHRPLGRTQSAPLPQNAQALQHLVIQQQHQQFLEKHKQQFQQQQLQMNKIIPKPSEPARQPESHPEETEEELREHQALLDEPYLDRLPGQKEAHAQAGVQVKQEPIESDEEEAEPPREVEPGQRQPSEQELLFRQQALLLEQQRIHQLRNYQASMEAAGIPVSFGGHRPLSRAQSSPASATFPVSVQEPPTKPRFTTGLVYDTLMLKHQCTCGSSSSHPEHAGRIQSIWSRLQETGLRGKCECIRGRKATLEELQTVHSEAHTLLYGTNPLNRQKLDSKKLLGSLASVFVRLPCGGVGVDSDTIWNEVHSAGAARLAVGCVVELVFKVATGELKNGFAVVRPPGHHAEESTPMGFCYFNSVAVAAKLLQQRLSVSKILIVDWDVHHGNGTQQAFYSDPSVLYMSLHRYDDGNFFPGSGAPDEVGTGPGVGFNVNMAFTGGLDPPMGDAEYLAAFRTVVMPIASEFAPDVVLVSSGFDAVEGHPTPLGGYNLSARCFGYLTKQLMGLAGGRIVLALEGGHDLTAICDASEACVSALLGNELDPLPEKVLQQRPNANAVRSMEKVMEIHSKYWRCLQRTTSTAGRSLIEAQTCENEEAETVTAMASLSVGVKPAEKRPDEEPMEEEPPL
pIC50: −log10 of the molar value.
MEASUREMENT_NAME: pIC50

smiles_string=CC1(C)c2cccc(C(N)=O)c2CN1c1cnc(C(F)(F)F)cn1 measurement_name=pIC50 value_measured="< 6.00"

====

- SYSTEM_TESTED: HDAC11 fused to Nanoluc luciferase (Homo sapiens (Human), UniProt Q96DB2)
- Sequence (Q96DB2 whole entry, the tested form may be a part): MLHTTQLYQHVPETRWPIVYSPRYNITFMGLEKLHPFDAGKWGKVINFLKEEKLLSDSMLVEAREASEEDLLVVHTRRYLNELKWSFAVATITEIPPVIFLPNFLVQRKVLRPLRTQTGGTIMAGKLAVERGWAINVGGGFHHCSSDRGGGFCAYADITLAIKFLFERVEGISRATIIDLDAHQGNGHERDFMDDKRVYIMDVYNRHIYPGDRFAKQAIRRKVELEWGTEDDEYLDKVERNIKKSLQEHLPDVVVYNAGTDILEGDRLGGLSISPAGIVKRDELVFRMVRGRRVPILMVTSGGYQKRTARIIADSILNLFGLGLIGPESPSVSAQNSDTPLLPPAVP
- TEST_DETAILS: BRET target engagement cell assay
pIC50: −log10 of the molar value.
pIC50 values by entry
MEASUREMENT_NAME: pIC50

compound="CC1(C)c2cccc(C(N)=O)c2CN1c1cnc(C(F)(F)F)cn1 [Compound 50-1]" measurement_name=pIC50 value_measured="< 6.00"
compound="CC1(C)c2cccc(C(=O)NO)c2CN1c1ccc(C(F)(F)F)nc1 [Compound 22-3]" measurement_name=pIC50 value_measured="> 7.70"

The measurements presented in this section are drawn from patent US11535607B2.
